From: patent US11180483B2

Tested on: Bmi-1
assayRemarks: Sandwich ELISA Assay (Bmi-1 ELISA) in HT-1080 cells
Format: cell-based
measurementLabel: EC50

Hi! What's the reported EC50 for Cc1nc2ccc(F)cc2n1-c1nc(N)cc(Nc2ccc3c(c2)OC(F)(F)O3)n1 [Cpd 269] on Bmi-1? 100 to 3000 nM

Hi! What's the reported EC50 for Cc1nc2cc(F)ccc2n1-c1nc(N)c(F)c(Nc2ccc(Cl)cc2)n1 [Cpd 259] on Bmi-1? 100 to 3000 nM

Hi! What's the reported EC50 for COc1ccc2nc(C)n(-c3nc(N)c(F)c(Nc4ccc(OC(F)(F)F)cc4)n3)c2c1 [Cpd 246] on Bmi-1? 10 to 100 nM

Hi! What's the reported EC50 for Cc1ccc(Nc2nc(-n3c(C)nc4ccc([N+](=O)[O-])cc43)nc(N)c2F)cc1 [Cpd 232] on Bmi-1? 10 to 100 nM

Hi! What's the reported EC50 for CCc1nc2c(F)cc(F)cc2n1-c1nc(N)c(F)c(Nc2ccc(OC(F)F)cc2)n1 [Cpd 132] on Bmi-1? 10 to 100 nM

Hi! What's the reported EC50 for Cc1ccc(Nc2nc(-n3c(C)nc4ccc(N)cc43)nc(N)c2F)cc1 [Cpd 258] on Bmi-1? 1 to 10 nM

Hi! What's the reported EC50 for COc1ccc(Nc2ccnc(-n3c(C)nc4ccccc43)n2)cc1Cl [Cpd 40] on Bmi-1? 100 to 3000 nM

Hi! What's the reported EC50 for Cc1nc2ccc(N)cc2n1-c1nc(N)c(F)c(Nc2ccc(OC(F)F)cc2)n1 [Cpd 257] on Bmi-1? 10 to 100 nM

Hi! What's the reported EC50 for Cc1nc2ncc(Cl)cc2n1-c1nc(N)c(F)c(Nc2ccc(C(F)(F)F)cc2)n1 [Cpd 114] on Bmi-1? 10 to 100 nM

Hi! What's the reported EC50 for FC(F)(F)c1nc2ccccn2c1-c1nccc(Nc2ccc3c(c2)OCCO3)n1 [Cpd 29] on Bmi-1? 10 to 100 nM

Hi! What's the reported EC50 for COc1ccc2nc(C(F)(F)F)c(-c3nccc(Nc4ccc(OC(F)F)cc4)n3)n2c1 [Cpd 51] on Bmi-1? 100 to 3000 nM

Hi! What's the reported EC50 for CCc1nc2ccc(F)cc2n1-c1nc(N)c(F)c(Nc2ccc(OC(F)F)cc2)n1 [Cpd 165] on Bmi-1? 1 to 10 nM

Hi! What's the reported EC50 for Cc1nc2ccc(F)cc2n1-c1nc(N)cc(Nc2ccc(N(C)C)cc2)n1 [Cpd 266] on Bmi-1? 10 to 100 nM

Hi! What's the reported EC50 for Nc1cc(Nc2ccc(C(F)(F)F)cc2)nc(-c2c(CO)nc3ccc(F)cn23)n1 [Cpd 84] on Bmi-1? 100 to 3000 nM

Hi! What's the reported EC50 for Cc1nc2cc(Cl)ccc2n1-c1nc(N)cc(Nc2ccc(C(F)(F)F)c(F)c2)n1 [Cpd 98] on Bmi-1? 100 to 3000 nM

Hi! What's the reported EC50 for Cc1c(N)nc(-n2c(C)nc3ccccc32)nc1Nc1ccc(C(F)(F)F)cc1 [Cpd 172] on Bmi-1? 100 to 3000 nM

Hi! What's the reported EC50 for COCCNc1cc(Nc2ccc(OC(F)F)cc2)nc(-n2c(C)nc3ccccc32)n1 [Cpd 59] on Bmi-1? 100 to 3000 nM

Hi! What's the reported EC50 for Nc1nc(-n2c(C3CC3)nc3ccccc32)nc(Nc2ccc(OC(F)F)c(F)c2)c1F [Cpd 122] on Bmi-1? 10 to 100 nM

Hi! What's the reported EC50 for Cc1nc2ccccc2n1-c1nc(N)cc(Nc2ccc(C#N)cc2)n1 [Cpd 210] on Bmi-1? 100 to 3000 nM

Hi! What's the reported EC50 for Nc1nc(-n2c(C3CC3)nc3c(F)cccc32)nc(Nc2ccc(C(F)(F)F)cc2)c1F [Cpd 140] on Bmi-1? 10 to 100 nM

Hi! What's the reported EC50 for Cc1nc2ccccc2n1-c1nc(N)cc(Nc2ccc(Br)cc2)n1 [Cpd 212] on Bmi-1? 10 to 100 nM

Hi! What's the reported EC50 for CCc1nc2ccccc2n1-c1nc(N)c(F)c(Nc2ccc(Cl)c(F)c2)n1 [Cpd 275] on Bmi-1? 10 to 100 nM

Hi! What's the reported EC50 for Cc1nc2c(F)cc(F)cc2n1-c1nc(N)c(F)c(Nc2ccc(Cl)cc2)n1 [Cpd 237] on Bmi-1? 10 to 100 nM

Hi! What's the reported EC50 for Cc1nc2c(F)cc(F)cc2n1-c1nc(N)c(F)c(Nc2ccc(C(F)(F)F)cc2)n1 [Cpd 127] on Bmi-1? 10 to 100 nM

Hi! What's the reported EC50 for Nc1cc(Nc2ccc(OC(F)F)cc2)nc(-n2c(C3CC3)nc3ncc(F)cc32)n1 [Cpd 103] on Bmi-1? 10 to 100 nM

Hi! What's the reported EC50 for Nc1cc(Nc2ccc(C(F)(F)F)cc2)nc(-c2c(C(F)(F)F)nc3ccccn23)n1 [Cpd 66] on Bmi-1? 10 to 100 nM

Hi! What's the reported EC50 for COc1ccc2nc(C)n(-c3nc(N)c(F)c(Nc4ccc5c(c4)OCO5)n3)c2c1 [Cpd 250] on Bmi-1? 10 to 100 nM

Hi! What's the reported EC50 for Cc1nc2c(F)cc(F)cc2n1-c1nc(N)c(F)c(Nc2ccc(OC(F)F)cc2)n1 [Cpd 131] on Bmi-1? 10 to 100 nM

Hi! What's the reported EC50 for Cc1nc2ccc(Cl)cc2n1-c1nc(N)cc(Nc2ccc(OC(F)F)cc2)n1 [Cpd 97] on Bmi-1? 10 to 100 nM

Hi! What's the reported EC50 for Nc1nc(-c2c(C(F)(F)F)nc3ccc(F)cn23)nc(Nc2ccc(C(F)(F)F)cc2)c1F [Cpd 178] on Bmi-1? 100 to 3000 nM

Hi! What's the reported EC50 for Cc1nc2ccc(Cl)cc2n1-c1nc(N)cc(Nc2ccc(C(F)(F)F)cc2)n1 [Cpd 93] on Bmi-1? 10 to 100 nM

Hi! What's the reported EC50 for Nc1nc(-n2c(C3CC3)nc3ccccc32)nc(Nc2ccc(Cl)c(F)c2)c1F [Cpd 280] on Bmi-1? 10 to 100 nM

Hi! What's the reported EC50 for Cc1nn2ccccc2c1-c1nc(N)c(F)c(Nc2ccc(C(F)(F)F)cc2)n1 [Cpd 177] on Bmi-1? 100 to 3000 nM

Hi! What's the reported EC50 for COc1ccc(Nc2nc(-n3c(C)nc4c(F)cc(F)cc43)nc(N)c2F)cc1 [Cpd 242] on Bmi-1? 1 to 10 nM

Hi! What's the reported EC50 for COc1ccc(Nc2ccnc(-c3c(C(F)(F)F)nc4ccccn34)n2)cc1Cl [Cpd 35] on Bmi-1? 100 to 3000 nM
